Test system: MDA-N
Protocol: NCI tumour cell line growth inhibition, 48 h
The source made the active and inactive calls. Rule as the data show it: active = GI50 up to about 1.1 µM and inactive = higher.
Outcomes you can answer with include only these: active, inactive

Consider the worked cases shown below.
COC(=O)C1CC23C4=C(CCC41)CCC1CN4CC(C)C(CC(OC(C)=O)C12COC(C)=O)C43O (stereo not given) | inactive
CC(=O)OC12OC(C)(C3C(=O)N(c4ccccc4)C(=O)C31)N(c1ccccc1)C2=O (stereo not given) | inactive
C[C@]12CCC(=O)C=C1CC[C@@H]1C2CC[C@]2(C)Nc3c(ncn3-c3ccc(F)cc3)CC12 (stereo not given in full) | inactive
OCC1CCC(n2cnc3c(O)ncnc32)O1 (stereo not given) | inactive
Cc1nc2ccc(NC3OCC(O)C(O)C3O)cc2c(=O)n1-c1ccccc1 (stereo not given) | inactive

// query Call for entry [BH3-][P+]1(CC[P@@+]([BH3-])(c2ccccc2)c2ccccc2OC)[C@@H](C)[C@@H](O)[C@H](O)[C@@H]1C (stereo not given in full) :
// result inactive
